test: chemical genetic growth profiling, strain panel (AID 1159580);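 also: tested at 20 µM; growth read once vehicle control cultures reached saturation at 30 °C; 1 = growth at the plate median or of vehicle wells; lower values mean less growth of the strain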; conditions: S. cerevisiae deletion strains, growth OD, locus YGR078C, strain PAC10, active compounds read low
Among all 5,500 compounds or so, about 2,000 (36%) were called active. Inconclusive results (about 18%) are left out. The list shows a part of the results.

# Compound, normalized growth
data = [
    ("Cc1ccc2c(c1)C1(C)CCCC(C)(C(=O)O)C1CC2 (stereo unspecified)", 0.979),
    ("CC(=O)O[C@H]1CCC2(C)C3=C(CCC2C1(C)C)[C@@]1(C)CC[C@@H](C(C)CCC=C(C)C)[C@]1(C)CC3 (stereo partly specified)", 1),
    ("Nc1ccc2nonc2c1N", 0.933),
    ("Cc1ccc(Sc2ccc([N+](=O)[O-])cc2/C=C2\\SC(=S)NC2=O)cc1", 0.98),
    ("CC(C)CCCC(C)C1CC[C@@]2(C)C3=C(CC[C@]12C)[C@@]1(C)CC[C@H](O)C(C)(C)C1CC3 (stereo partly specified)", 1.04),
    ("N=C(N)N", 0.997),
]
